Taken from the supplement of paper PMC7877785.

# test-protocol: self-splicing fitness, log relative to wild type (ln ratio); higher = more splicing; Tetrahymena group I intron in knt gene, E. coli kanamycin selection, DiMSum; sequences stand for … in CUCUCU…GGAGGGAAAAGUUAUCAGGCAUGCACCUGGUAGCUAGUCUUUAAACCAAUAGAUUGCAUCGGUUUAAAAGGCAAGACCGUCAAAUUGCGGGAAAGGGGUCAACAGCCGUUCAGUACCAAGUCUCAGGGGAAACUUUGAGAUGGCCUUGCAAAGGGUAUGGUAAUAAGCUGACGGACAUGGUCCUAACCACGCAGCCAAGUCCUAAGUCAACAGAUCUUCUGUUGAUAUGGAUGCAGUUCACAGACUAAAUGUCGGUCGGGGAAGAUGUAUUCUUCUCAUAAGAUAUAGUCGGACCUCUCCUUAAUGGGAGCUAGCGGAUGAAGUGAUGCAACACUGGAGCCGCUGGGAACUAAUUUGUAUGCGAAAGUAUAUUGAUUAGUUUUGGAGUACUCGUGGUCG;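 note: selection with 25 µg/mL kanamycin versus none on LB agar overnight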
# measurement-setup: 37 °C
Measured self-splicing fitness (ln) values are reported for all entries that follow.
Reply with just the number.

Solved entries:
| chain | attribute-measured | numeric-value |
| --- | --- | --- |
| CCUAAGCAAUAUUACGAGGU | self-splicing fitness (ln) | -3.38 |
| CGUCAGCAAUAUUACGGAGU | self-splicing fitness (ln) | -2.55 |
| GUUAAGCAAUAUUACGGUUU | self-splicing fitness (ln) | -1.5 |

Find the recorded self-splicing fitness (ln) belonging to `CCCCAGCAAUAUUACGGUAA` and report it. -2.78

Find the recorded self-splicing fitness (ln) belonging to `GCGAAGCAAUAUUACGCGUA` and report it. -0.565

Find the recorded self-splicing fitness (ln) belonging to `ACGUAGCAAUAUUACGCUGC` and report it. -1.44

Find the recorded self-splicing fitness (ln) belonging to `CGCAAGCAAUAUUACGAAGC` and report it. -3.1

Find the recorded self-splicing fitness (ln) belonging to `UGUCAGCAAUAUUACGCCCC` and report it. 0.0501

Find the recorded self-splicing fitness (ln) belonging to `ACUCAGCAAUAUUACGUACG` and report it. -0.864

Find the recorded self-splicing fitness (ln) belonging to `CAUAAGCAAUAUUACGAAGU` and report it. -2.75

Find the recorded self-splicing fitness (ln) belonging to `GUGGAGCAAUAUUACGCUAG` and report it. -2.36

Find the recorded self-splicing fitness (ln) belonging to `GCCAAGCAAUAUUACGGGGG` and report it. -2.35

Find the recorded self-splicing fitness (ln) belonging to `UGAAAGCAAUAUUACGGAAU` and report it. -0.0346

Find the recorded self-splicing fitness (ln) belonging to `AUUUAGCAAUAUUACGGAAC` and report it. -2.02

Find the recorded self-splicing fitness (ln) belonging to `UAAAAGCAAUAUUACGUUUA` and report it. -0.871

Find the recorded self-splicing fitness (ln) belonging to `CCGAAGCAAUAUUACGGGCU` and report it. -2.36

Find the recorded self-splicing fitness (ln) belonging to `GGGAAGCAAUAUUACGCAAC` and report it. -1.03

Find the recorded self-splicing fitness (ln) belonging to `UAAAAGCAAUAUUACGUUGA` and report it. -1.46

Find the recorded self-splicing fitness (ln) belonging to `GGGUAGCAAUAUUACGUAAA` and report it. -0.0364

Find the recorded self-splicing fitness (ln) belonging to `AUAAAGCAAUAUUACGCUUC` and report it. -2.39

Find the recorded self-splicing fitness (ln) belonging to `CUUCAGCAAUAUUACGGUCU` and report it. -2.21

Find the recorded self-splicing fitness (ln) belonging to `AGCUAGCAAUAUUACGAAUA` and report it. -2.35

Find the recorded self-splicing fitness (ln) belonging to `UUCAAGCAAUAUUACGAUAC` and report it. -2.58

Find the recorded self-splicing fitness (ln) belonging to `CAAAAGCAAUAUUACGUCCG` and report it. 0.175

---

# test-protocol: self-splicing fitness, log relative to wild type (ln ratio); higher = more splicing; Tetrahymena group I intron in knt gene, E. coli kanamycin selection, DiMSum; sequences stand for … in CUCUCU…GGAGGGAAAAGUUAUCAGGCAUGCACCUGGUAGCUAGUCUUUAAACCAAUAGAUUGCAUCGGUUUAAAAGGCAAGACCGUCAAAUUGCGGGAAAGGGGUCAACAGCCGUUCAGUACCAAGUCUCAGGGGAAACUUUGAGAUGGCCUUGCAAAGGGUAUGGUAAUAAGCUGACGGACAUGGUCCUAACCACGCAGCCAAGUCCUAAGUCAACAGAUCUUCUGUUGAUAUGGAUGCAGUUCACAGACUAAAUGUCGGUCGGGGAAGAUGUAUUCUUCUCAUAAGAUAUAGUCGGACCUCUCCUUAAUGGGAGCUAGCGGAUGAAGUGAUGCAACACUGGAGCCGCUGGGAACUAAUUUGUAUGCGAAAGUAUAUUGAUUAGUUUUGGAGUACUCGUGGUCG
# measurement-setup: 37 °C
attribute-measured: self-splicing fitness (ln)

Solved entries:
| chain | attribute-measured | result |
| --- | --- | --- |
| GUCGAGCAAUAUUACGCGGA | self-splicing fitness (ln) | -1.25 |
| UGCAAGCAAUAUUACGGGUU | self-splicing fitness (ln) | -1.23 |
| GUGUAGCAAUAUUACGCAGG | self-splicing fitness (ln) | -2.3 |
| GCUAAGCAAUAUUACGUCAG | self-splicing fitness (ln) | -2.21 |
| CAACAGCAAUAUUACGUGAG | self-splicing fitness (ln) | -0.233 |
| UUCUAGCAAUAUUACGAGAU | self-splicing fitness (ln) | -2.67 |

Find the recorded self-splicing fitness (ln) belonging to `UGCUAGCAAUAUUACGGUAU` and report it. -2.43

Find the recorded self-splicing fitness (ln) belonging to `GUCGAGCAAUAUUACGGAUA` and report it. -1.25

Find the recorded self-splicing fitness (ln) belonging to `AAUCAGCAAUAUUACGGGAC` and report it. -1.4

Find the recorded self-splicing fitness (ln) belonging to `UUAAAGCAAUAUUACGACAG` and report it. 0.0597

Find the recorded self-splicing fitness (ln) belonging to `GCUAAGCAAUAUUACGGUCC` and report it. -0.541

---

# test-protocol: self-splicing fitness, log relative to wild type (ln ratio); higher = more splicing; Tetrahymena group I intron in knt gene, E. coli kanamycin selection, DiMSum; sequences stand for … in CUCUCU…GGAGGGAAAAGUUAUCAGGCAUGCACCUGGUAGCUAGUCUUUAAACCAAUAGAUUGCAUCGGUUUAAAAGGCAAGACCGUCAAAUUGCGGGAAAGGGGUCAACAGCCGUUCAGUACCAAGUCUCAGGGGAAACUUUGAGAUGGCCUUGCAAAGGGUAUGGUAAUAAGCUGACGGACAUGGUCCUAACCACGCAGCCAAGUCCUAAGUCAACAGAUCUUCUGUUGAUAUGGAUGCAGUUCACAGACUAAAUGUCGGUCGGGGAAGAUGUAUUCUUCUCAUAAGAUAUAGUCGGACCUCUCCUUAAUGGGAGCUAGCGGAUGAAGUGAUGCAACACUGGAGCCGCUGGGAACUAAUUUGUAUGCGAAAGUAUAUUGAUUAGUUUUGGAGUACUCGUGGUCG
# measurement-setup: 37 °C
self-splicing fitness (ln) below -1 gives condition not met; self-splicing fitness (ln) at or above it gives condition met.

Example results:
| chain | assigned-class |
| --- | --- |
| ACAAAGCAAUAUUACGCGUA | condition met |
| GCUUAGCAAUAUUACGCAAU | condition not met |
| AUGCAGCAAUAUUACGCAAU | condition not met |
| UGCUAGCAAUAUUACGGGGU | condition not met |
| CAGGAGCAAUAUUACGAUUC | condition not met |
| CCUCAGCAAUAUUACGGUGG | condition not met |
| CAGCAGCAAUAUUACGCCGU | condition not met |
| AUAAAGCAAUAUUACGGUUU | condition met |

Kindly determine if self-splicing fitness (ln) recorded for `CGUCAGCAAUAUUACGGUGG` is above or exactly -1. condition met

Kindly determine if self-splicing fitness (ln) recorded for `CCAAAGCAAUAUUACGUGCU` is above or exactly -1. condition not met

Kindly determine if self-splicing fitness (ln) recorded for `UGCGAGCAAUAUUACGGUAC` is above or exactly -1. condition not met

Kindly determine if self-splicing fitness (ln) recorded for `AGGUAGCAAUAUUACGGGGC` is above or exactly -1. condition not met

Kindly determine if self-splicing fitness (ln) recorded for `CGGAAGCAAUAUUACGUAUU` is above or exactly -1. condition not met

Kindly determine if self-splicing fitness (ln) recorded for `AUUGAGCAAUAUUACGGCCU` is above or exactly -1. condition met

Kindly determine if self-splicing fitness (ln) recorded for `GGCUAGCAAUAUUACGACGA` is above or exactly -1. condition not met

Kindly determine if self-splicing fitness (ln) recorded for `GAGCAGCAAUAUUACGUGUG` is above or exactly -1. condition met
